B1: ANKRD9 (parent)
chain: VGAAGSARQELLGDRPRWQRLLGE

- Variants of: B1
- test details: protein stability index of a GFP-peptide fusion (GPS, HEK-293T) (PSI 1-6); higher = more stable;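 note: lentivirally expressed fusions sorted by FACS into six bins by GFP to DsRed ratio, PSI derived from sequencing read proportions per bin multiplied by bin number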
- assay context: c terminus: a fixed tail appended
Kindly supply the reported protein stability index values for the records listed here.
Please reply with the value in numeric form only.

GET /value?item= Q19S &field=protein stability index returns 2.91

Item: E24H | protein stability index: 2.96

Given item Q9R , the value recorded as its protein stability index is 3.04

Per the records, this variant ( L21I ) has protein stability index equal to 2.93

Sure, the documented protein stability index for A7P is 2.98

protein stability index reading for P16G : 2.98

Briefly, protein stability index measured for R17V : 3

// data source = the supplement of paper PMC10567573
